Entry source: PubChem BioAssay

- Test system: Sonic hedgehog protein (Shh)
- method-description: Sonic hedgehog microarray binding compounds – biochemical, small-molecule microarray, 635/667 nm fluorescence, primary screen (AID 1151);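 also: Shh protein binding to compounds spotted on small-molecule microarray slides; score combines spot fluorescence intensity with signal-to-noise across triplicate slides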
- study-conditions: 635 nm fluorescence, higher = more signal
# composite z-score >= 0.5 gives true (1), anything below gives false (0)

[
  {
    "compound": "COc1ccc([Si](C)(C)[C@H]2[C@H](CC(=O)N3Cc4ccccc4C[C@H]3CO)O[C@@]3(C(=O)N(Cc4cccc(I)c4)c4ccccc43)[C@@H]2C)cc1",
    "target-entity": "Sonic hedgehog protein (Shh)",
    "discrete-label": "true (1)"
  },
  {
    "compound": "O=C1OCCC/C=C\\[C@H]2OC34C=CCN(CCN5CCOCC5)C(=O)[C@H]3N(CCO)C(=O)[C@@H]4C12 (stereo not given in full)",
    "target-entity": "Sonic hedgehog protein (Shh)",
    "discrete-label": "false (0)"
  },
  {
    "compound": "C[N+](C)(C)CCCC[C@@H]1NC(=O)[C@H]2C[C@@H](C(=O)O)[C@@H](c3cccc(OCCO)c3)N2C1=O",
    "target-entity": "Sonic hedgehog protein (Shh)",
    "discrete-label": "true (1)"
  },
  {
    "compound": "COC(=O)c1nc2oc1CC[C@@H](CO)NC(=O)N(C)Cc1cn(nn1)C[C@H](Cc1ccccc1)NC2=O",
    "target-entity": "Sonic hedgehog protein (Shh)",
    "discrete-label": "false (0)"
  },
  {
    "compound": "Cc1ccc(N2C(=O)c3ccccc3[C@](C)(C(=O)NCCN3CCOCC3)[C@@H]2c2ccc(CO)cc2)nc1",
    "target-entity": "Sonic hedgehog protein (Shh)",
    "discrete-label": "false (0)"
  },
  {
    "compound": "Cc1ccc(F)cc1S(=O)(=O)N[C@@H]1CCN(Cc2ccc(C(F)(F)F)cc2)C1",
    "target-entity": "Sonic hedgehog protein (Shh)",
    "discrete-label": "false (0)"
  },
  {
    "compound": "C=C[C@H](C)[C@H](O)c1ccc(OCCO)cc1",
    "target-entity": "Sonic hedgehog protein (Shh)",
    "discrete-label": "false (0)"
  },
  {
    "compound": "COC(=O)[C@@]1(Cc2ccc(F)cc2)[C@H]2c3cc(C(=O)N(C)C)n(CCc4c[nH]c5ccc(OC)cc45)c3C[C@H]2CN1C(=O)c1ccccc1",
    "target-entity": "Sonic hedgehog protein (Shh)",
    "discrete-label": "false (0)"
  },
  {
    "compound": "C=CCC(OC(C)=O)[C@@H]1[C@@H](N(Cc2ccc(-c3ccccc3)cc2)C(=O)c2ccc(C)cc2)c2cc(OCCCO)ccc2N1C(=O)Cc1ccc(OC)cc1 (stereo not given in full)",
    "target-entity": "Sonic hedgehog protein (Shh)",
    "discrete-label": "true (1)"
  },
  {
    "compound": "Cc1ccc(C(C)CC(O)C2C=CC3C(=O)NC(=O)C3N2Nc2ccccn2)o1 (stereo not given)",
    "target-entity": "Sonic hedgehog protein (Shh)",
    "discrete-label": "false (0)"
  },
  {
    "compound": "COc1ccc([Si](C)(C)[C@@H]2[C@@H](CCO)O[C@]3(C(=O)N(Cc4cccc(N(C=O)c5ccccc5)c4)c4ccccc43)[C@H]2C)cc1",
    "target-entity": "Sonic hedgehog protein (Shh)",
    "discrete-label": "true (1)"
  },
  {
    "compound": "C=C[C@H](OC)[C@@H](OC(=O)Nc1ccc(SC)cc1)c1ccc(OCCO)cc1",
    "target-entity": "Sonic hedgehog protein (Shh)",
    "discrete-label": "false (0)"
  },
  {
    "compound": "O=C1O[C@@H](c2ccccc2)[C@@H](c2ccccc2)N2[C@@H](c3ccc(O)cc3)[C@]3(C(=O)Nc4ccccc43)[C@@H](C(=O)NC[C@H](O)c3ccccc3)[C@H]12",
    "target-entity": "Sonic hedgehog protein (Shh)",
    "discrete-label": "false (0)"
  },
  {
    "compound": "C[N+](C)(C)CCCCNC(=O)[C@H]1C[C@H]2C(=O)N3CCC[C@H]3C(=O)N2[C@H]1c1ccc(O)cc1",
    "target-entity": "Sonic hedgehog protein (Shh)",
    "discrete-label": "true (1)"
  },
  {
    "compound": "O=C1[C@H]2C=C(Br)[C@H](C[C@@H]2OCCOCCO)[C@@]12CO2",
    "target-entity": "Sonic hedgehog protein (Shh)",
    "discrete-label": "false (0)"
  },
  {
    "compound": "C=CCN1Cc2ccccc2C[C@@]2(COC(c3ccc(OCCCO)cc3)=N2)C1=O",
    "target-entity": "Sonic hedgehog protein (Shh)",
    "discrete-label": "true (1)"
  },
  {
    "compound": "CCCCC(=C=CC[C@H](O)c1ccccc1OCCO)C[C@H](O)c1cc(Cl)cc(Cl)c1O",
    "target-entity": "Sonic hedgehog protein (Shh)",
    "discrete-label": "true (1)"
  },
  {
    "compound": "C=C(CCCC)C(=O)CC[C@H](OC(=O)c1ccccc1-c1ccccc1C(=O)O)c1ccc(CO)o1",
    "target-entity": "Sonic hedgehog protein (Shh)",
    "discrete-label": "true (1)"
  },
  {
    "compound": "COC(=O)[C@@]1(Cc2ccc(F)cc2)[C@H]2c3cc(C(=O)N(C)C)n(Cc4ccccn4)c3C[C@H]2CN1C(=O)c1ccccc1",
    "target-entity": "Sonic hedgehog protein (Shh)",
    "discrete-label": "false (0)"
  },
  {
    "compound": "CCCCC(=O)N(Cc1ccccc1F)[C@@H]1CC(C(=O)NCCO)=C[C@H](Oc2c(I)cc(CO)cc2OC)[C@H]1O",
    "target-entity": "Sonic hedgehog protein (Shh)",
    "discrete-label": "true (1)"
  }
]
